system tested: T1, KRAS G12V peptide on HLA-A*11:01 (human)
T1 peptide: VVVGAVGVGK
measurement notes: killing
measurement label: binding result

INSERT INTO results (binder, measurement_label, recorded_result) VALUES
  ('TCR2 (TCR, V domains shown) Valpha: DQQVKQNSPSLSVQEGRISILNCDYTNSMFDYFLWYKKYPAEGPTFLISISSIKDKNEDGRFTVFLNKSAKHLSLHIVPSQPGDSAVYFCAAKDNAGNMLTFGGGTRLMVKP Vbeta: KAGVTQTPRYLIKTRGQQVTLSCSPISGHRSVSWYQQTPGQGLQFLFEYFSETQRNKGNFPGRFSGRQFSNSRSEMNVSTLELGDSALYLCASSLGTAEAFFGQGTRLTVV', 'binding result', 'recognises'),
  ('TCR5 (TCR, V domains shown) Valpha: GEDVEQSLFLSVREGDSSVINCTYTDSSSTYLYWYKQEPGAGLQLLTYIFSNMDMKQDQRLTVLLNKKDKHLSLRIADTQTGDSAIYFCAESPGGGADGLTFGKGTHLIIQP Vbeta: GAVVSQHPSWVICKSGTSVKIECRSLDFQATTMFWYRQFPKQSLMLMATSNEGSKATYEQGVEKDKFLINHASLTLSTLTVTSAHPEDSSFYICSAPRGWAAGVYGYTFGSGTRLTVV', 'binding result', 'recognises');
